Examples of compounds with documented viability, T/C follow.
test system: 233499-124-R-J3-PDC complex spheroid growth; experiment: Anticancer human tumor 233499-124-R-J3-PDC patient-derived colon adenocarcinoma cell line growth inhibition [AhR]; conditions: second compound 3.16 µM; first compound 0.0949 µM; stronger effect = lower value
Your answer is read as %, so omit the unit and give the number.

Previously resolved entries follow.
[
  {
    "Compound": "CC(C)CC(NC(=O)C(Cc1ccccc1)NC(=O)c1cnccn1)B(O)O (stereo not given) + Cc1ccccc1N=Nc1ccc(NC(=O)c2ccnn2C)c(C)c1",
    "Units symbol": "%",
    "viability, T/C": 0.09
  },
  {
    "Compound": "CC(C)CC(NC(=O)C(Cc1ccccc1)NC(=O)c1cnccn1)B(O)O (stereo not given) + CC(CO)NC(=O)c1cc(-c2ccc(Cl)cc2)nn(-c2cnn(C)c2)c1=O",
    "Units symbol": "%",
    "viability, T/C": 0.13
  },
  {
    "Compound": "O=C(C=Cn1cnc(-c2cc(C(F)(F)F)cc(C(F)(F)F)c2)n1)NNc1cnccn1 + Cc1cncc(-c2nc(NCCc3c[nH]c4ccccc34)c3ncn(C(C)C)c3n2)c1",
    "Units symbol": "%",
    "viability, T/C": 93.2
  },
  {
    "Compound": "Nc1ncn(C2CC(O)C(CO)S2)c(=O)n1 (stereo not given) + Cc1cncc(-c2nc(NCCc3c[nH]c4ccccc34)c3ncn(C(C)C)c3n2)c1",
    "Units symbol": "%",
    "viability, T/C": 104
  }
]

Give the measured viability, T/C of CCN(c1cc(-c2ccc(CN3CCOCC3)cc2)cc(C(=O)NCc2c(C)cc(C)[nH]c2=O)c1C)C1CCOCC1 + Cc1cncc(-c2nc(NCCc3c[nH]c4ccccc34)c3ncn(C(C)C)c3n2)c1 .
82.4

---

test system: 233499-124-R-J3-PDC complex spheroid growth; test: Anticancer human tumor 233499-124-R-J3-PDC cell line growth inhibition [AhR]; settings: second compound 0.316 µM; first compound 10 µM; stronger effect = lower value;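 note: spheroids exposed to agents for seven days before reading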
Exam item: assign Y to entries whose viability, T/C is below 70% and N to entries at or above 70%. Note that a value of exactly 70% receives N.

Solved cases below.
[
  {
    "Molecule": "COc1cc(C2c3cc4c(cc3C(OC3OC5COC(C)OC5C(O)C3O)C3COC(=O)C23)OCO4)cc(OC)c1O (configuration not stated) + CC(CO)NC(=O)c1cc(-c2ccc(Cl)cc2)nn(-c2cnn(C)c2)c1=O",
    "Class assignment": "N"
  },
  {
    "Molecule": "COc1cc(C2c3cc4c(cc3C(OC3OC5COC(C)OC5C(O)C3O)C3COC(=O)C23)OCO4)cc(OC)c1O (configuration not stated) + Cc1cncc(-c2nc(NCCc3c[nH]c4ccccc34)c3ncn(C(C)C)c3n2)c1",
    "Class assignment": "N"
  },
  {
    "Molecule": "CC1(C)CCC(CN2CCN(c3ccc(C(=O)NS(=O)(=O)c4ccc(NCC5CCOCC5)c([N+](=O)[O-])c4)c(Oc4cnc5[nH]ccc5c4)c3)CC2)=C(c2ccc(Cl)cc2)C1 + Cc1ccccc1N=Nc1ccc(NC(=O)c2ccnn2C)c(C)c1",
    "Class assignment": "Y"
  },
  {
    "Molecule": "COc1ccc([C@@H](O)c2cc(-c3ncnc4cc(N5CCOCC5)ccc34)c(F)cc2Cl)nn1 + Cc1cncc(-c2nc(NCCc3c[nH]c4ccccc34)c3ncn(C(C)C)c3n2)c1",
    "Class assignment": "Y"
  },
  {
    "Molecule": "CC(C)c1c(-c2ccccc2)nc2c(C#N)c[nH]n2c1=O + Cc1ccccc1N=Nc1ccc(NC(=O)c2ccnn2C)c(C)c1",
    "Class assignment": "N"
  },
  {
    "Molecule": "NS(=O)(=O)OCC1CC(n2ccc3c(NC4CCc5ccccc54)ncnc32)CC1O (configuration not stated) + Cc1cncc(-c2nc(NCCc3c[nH]c4ccccc34)c3ncn(C(C)C)c3n2)c1",
    "Class assignment": "Y"
  }
]

We next turn to a different molecule, shown below.
For this molecule, is viability, T/C lower than 70%? NS(=O)(=O)OCC1CC(n2ccc3c(NC4CCc5ccccc54)ncnc32)CC1O (configuration not stated) + CC(CO)NC(=O)c1cc(-c2ccc(Cl)cc2)nn(-c2cnn(C)c2)c1=O
Y

---

tested on: 233499-124-R-J3-PDC complex spheroid growth; test: Anticancer human tumor 233499-124-R-J3-PDC cell line growth inhibition [AhR]; conditions: second compound 0.1 µM; first compound 0.000949 µM; stronger effect = lower value;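 note: spheroids exposed to agents for seven days before reading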
Readout kind: viability, T/C (%)
// return numeric value only (unit: %, not printed)

In the examples that follow, each entry is paired with its recorded viability, T/C.
[
  {
    "Compound": "Nc1ncn(C2CC(O)C(CO)S2)c(=O)n1 (stereo not drawn) + Cc1ccccc1N=Nc1ccc(NC(=O)c2ccnn2C)c(C)c1",
    "Units symbol": "%",
    "Endpoint result": 91.9
  },
  {
    "Compound": "Nc1ncn(C2CC(O)C(CO)S2)c(=O)n1 (stereo not drawn) + Cc1cncc(-c2nc(NCCc3c[nH]c4ccccc34)c3ncn(C(C)C)c3n2)c1",
    "Units symbol": "%",
    "Endpoint result": 89.6
  }
]

Proceed to the following item.
Find the recorded viability, T/C belonging to CC(C)CC(NC(=O)C(Cc1ccccc1)NC(=O)c1cnccn1)B(O)O (stereo not drawn) + CC(CO)NC(=O)c1cc(-c2ccc(Cl)cc2)nn(-c2cnn(C)c2)c1=O and report it.
92.4

---

system: 233499-124-R-J3-PDC complex spheroid growth; assay: Anticancer human tumor 233499-124-R-J3-PDC cell line growth inhibition [AhR]; conditions: second compound 0.1 µM; first compound 1 µM; active = viability on the fitted dose curve at most 10% of control; inactive = the rest;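 note: spheroids exposed to agents for seven days before reading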
The reply should name one outcome from 1 (yes) (active), 0 (no) (inactive)

[
  {
    "Molecule": "Nc1ccccc1NC(=O)c1ccc(CNC(=O)OCc2cccnc2)cc1 + CC(CO)NC(=O)c1cc(-c2ccc(Cl)cc2)nn(-c2cnn(C)c2)c1=O",
    "Class assignment": "0 (no)"
  }
]

Record lookup: outcome of this test for NS(=O)(=O)OCC1CC(n2ccc3c(NC4CCc5ccccc54)ncnc32)CC1O (stereo not drawn) + CC(CO)NC(=O)c1cc(-c2ccc(Cl)cc2)nn(-c2cnn(C)c2)c1=O ?
1 (yes)

Cool, now CC(C)c1c(-c2ccccc2)nc2c(C#N)c[nH]n2c1=O + Cc1ccccc1N=Nc1ccc(NC(=O)c2ccnn2C)c(C)c1
0 (no)

---

tested on: 233499-124-R-J3-PDC complex spheroid growth; experiment: Anticancer human tumor 233499-124-R-J3-PDC cell line growth inhibition [AhR]; conditions: second compound 0.316 µM; first compound 10 µM; stronger effect = lower value;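 note: spheroids exposed to agents for seven days before reading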
Entries and their viability, T/C values follow.
Write down the numeric answer in % and omit the unit.

Please report the recorded viability, T/C for COc1cc(Nc2ncc3c(n2)-c2ccc(Cl)cc2C(c2c(F)cccc2OC)=NC3)ccc1C(=O)O + Cc1ccccc1N=Nc1ccc(NC(=O)c2ccnn2C)c(C)c1 .
84.2

Another compound to look at: O=C(C=Cc1cccc(S(=O)(=O)Nc2ccccc2)c1)NO + CC(CO)NC(=O)c1cc(-c2ccc(Cl)cc2)nn(-c2cnn(C)c2)c1=O
4.58

Try this compound too: CC1(C)CCC(CN2CCN(c3ccc(C(=O)NS(=O)(=O)c4ccc(NCC5CCOCC5)c([N+](=O)[O-])c4)c(Oc4cnc5[nH]ccc5c4)c3)CC2)=C(c2ccc(Cl)cc2)C1 + Cc1cncc(-c2nc(NCCc3c[nH]c4ccccc34)c3ncn(C(C)C)c3n2)c1
96.3

Now consider CC(C)c1c(-c2ccccc2)nc2c(C#N)c[nH]n2c1=O + Cc1cncc(-c2nc(NCCc3c[nH]c4ccccc34)c3ncn(C(C)C)c3n2)c1 and answer again.
85.2

---

system: 233499-124-R-J3-PDC complex spheroid growth; experiment: Anticancer human tumor 233499-124-R-J3-PDC cell line growth inhibition [AhR]; details: curve of first compound; second compound 0.316 µM;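 note: spheroids exposed to agents for seven days before reading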
pIC50: −log10 of the molar value.
Readout kind: pIC50

Use these answered entries as a reference point.
[
  {
    "Molecule": "COc1ccc([C@@H](O)c2cc(-c3ncnc4cc(N5CCOCC5)ccc34)c(F)cc2Cl)nn1 + Cc1cncc(-c2nc(NCCc3c[nH]c4ccccc34)c3ncn(C(C)C)c3n2)c1",
    "pIC50": "< 5.00"
  },
  {
    "Molecule": "Nc1ncn(C2CC(O)C(CO)O2)c(=O)n1 (stereo not drawn) + Cc1cncc(-c2nc(NCCc3c[nH]c4ccccc34)c3ncn(C(C)C)c3n2)c1",
    "pIC50": "< 6.00"
  }
]

Turning now to a further molecule:
I have this molecule here, COc1cccc2c1C(=O)c1c(O)c3c(c(O)c1C2=O)CC(O)(C(=O)CO)CC3OC1CC(N)C(O)C(C)O1 (stereo not drawn) + Cc1cncc(-c2nc(NCCc3c[nH]c4ccccc34)c3ncn(C(C)C)c3n2)c1 , and I need its recorded pIC50.
< 5.00

Values were extracted from PubChem BioAssay AID1918993.
